# Test system: keratinocytes (HaCaT)
# PROCEDURE TEXT: Cytotoxicity, MTT assay
# Assay type: cell-based, human
# MEASUREMENT CONDITIONS: Keratinocytes (HaCaT), MTT, 24 h
Where a SMILES comes first, the peptide text is derived from it. [ ]: non-standard residue; d: D form. The star is where a group is joined. Lauroyl = CCCCCCCCCCCC(=O)*; Pentanoyl = CCCCC(=O)*; AEEA = NCCOCCOCC(=O)O; βAla = NCCC(=O)O
RESULT TYPE: IC50 (µg/mL)
The figure you give is taken to be in µg/mL; do not add the unit.

Worked set:
>>> numeric_value("CCCCC(=O)N[C@H](C(=O)N[C@@H](CCCCN)C(=O)N[C@@H](CCCCN)C(=O)N[C@H](C(=O)N[C@@H](CC(C)C)C(=O)N[C@@H](CO)C(=O)N[C@@H](CCCCN)C(=O)N[C@H](C(=O)N[C@@H](CCCCN)C(=O)N[C@@H](CCCCN)C(=O)N[C@@H](CC(C)C)C(=O)N[C@@H](CC(C)C)C(N)=O)[C@@H](C)CC)[C@@H](C)CC)[C@@H](C)CC [Compound C5-DK5] (Pentanoyl-IKKILSKIKKLL-NH2)")
35
>>> numeric_value("CCCCCCCCCCCC(=O)NCCC(=O)N[C@@H](Cc1c[nH]cn1)C(=O)NCCOCCOCC(=O)N[C@H](C(=O)N[C@@H](CCCCN)C(=O)N[C@@H](CCCCN)C(=O)N[C@H](C(=O)N[C@@H](CC(C)C)C(=O)N[C@@H](CO)C(=O)N[C@@H](CCCCN)C(=O)N[C@H](C(=O)N[C@@H](CCCCN)C(=O)N[C@@H](CCCCN)C(=O)N[C@@H](CC(C)C)C(=O)N[C@@H](CC(C)C)C(N)=O)[C@@H](C)CC)[C@@H](C)CC)[C@@H](C)CC [C12-CAR-PEG-DK5] ({Lauroyl-βAla}-H[AEEA]IKKILSKIKKLL-NH2)")
10

Attention now shifts to the item below.
Suppose we examine the compound CCCCCCCCCCCC(=O)N[C@H](C(=O)N[C@@H](CCCCN)C(=O)N[C@@H](CCCCN)C(=O)N[C@H](C(=O)N[C@@H](CC(C)C)C(=O)N[C@@H](CO)C(=O)N[C@@H](CCCCN)C(=O)N[C@H](C(=O)N[C@@H](CCCCN)C(=O)N[C@@H](CCCCN)C(=O)N[C@@H](CC(C)C)C(=O)N[C@@H](CC(C)C)C(N)=O)[C@@H](C)CC)[C@@H](C)CC)[C@@H](C)CC [Compound C12-DK5] (Lauroyl-IKKILSKIKKLL-NH2) ; what IC50 value has been reported? 1

* * *

# System: C.albicans CCM 8186
# PROCEDURE TEXT: MIC, broth microdilution
# Format: cell-based, Candida albicans
# MEASUREMENT CONDITIONS: C.albicans CCM 8186, 24 h
Where a SMILES comes first, the peptide text is derived from it. [ ]: non-standard residue; d: D form. The star is where a group is joined. Palmitoyl = CCCCCCCCCCCCCCCC(=O)*; Pentanoyl = CCCCC(=O)*; AEEA = NCCOCCOCC(=O)O; Ahx = NCCCCCC(=O)O; βAla = NCCC(=O)O
RESULT TYPE: MIC100

Worked examples follow.
>>> result("CCCCC(=O)NCCC(=O)N[C@@H](Cc1c[nH]cn1)C(=O)O")
"Non-inhibitory"
>>> result("CCCCCCCCCCCCCCCC(=O)NCCC(=O)N[C@@H](Cc1c[nH]cn1)C(=O)O [Compound C16-CAR, CH3(CH2)14C(O)-βAH]")
"Non-inhibitory"
>>> result("CCCCC(=O)NCCC(=O)N[C@@H](Cc1c[nH]cn1)C(=O)NCCOCCOCC(=O)N[C@H](C(=O)N[C@@H](CCCCN)C(=O)N[C@@H](CCCCN)C(=O)N[C@H](C(=O)N[C@@H](CC(C)C)C(=O)N[C@@H](CO)C(=O)N[C@@H](CCCCN)C(=O)N[C@H](C(=O)N[C@@H](CCCCN)C(=O)N[C@@H](CCCCN)C(=O)N[C@@H](CC(C)C)C(=O)N[C@@H](CC(C)C)C(N)=O)[C@@H](C)CC)[C@@H](C)CC)[C@@H](C)CC [C5-CAR-PEG-DK5] ({Pentanoyl-βAla}-H[AEEA]IKKILSKIKKLL-NH2)")
">50 µg/mL"
>>> result("CCCCCCCCCCCCCCCC(=O)N[C@H](C(=O)N[C@@H](CCCCN)C(=O)N[C@@H](CCCCN)C(=O)N[C@H](C(=O)N[C@@H](CC(C)C)C(=O)N[C@@H](CO)C(=O)N[C@@H](CCCCN)C(=O)N[C@H](C(=O)N[C@@H](CCCCN)C(=O)N[C@@H](CCCCN)C(=O)N[C@@H](CC(C)C)C(=O)N[C@@H](CC(C)C)C(N)=O)[C@@H](C)CC)[C@@H](C)CC)[C@@H](C)CC [Compound C16-DK5] (Palmitoyl-IKKILSKIKKLL-NH2)")
">50 µg/mL"

Can you share its MIC100? I mean this molecule: CCCCC(=O)N[C@H](C(=O)N[C@@H](CCCCN)C(=O)N[C@@H](CCCCN)C(=O)N[C@H](C(=O)N[C@@H](CC(C)C)C(=O)N[C@@H](CO)C(=O)N[C@@H](CCCCN)C(=O)N[C@H](C(=O)N[C@@H](CCCCN)C(=O)N[C@@H](CCCCN)C(=O)N[C@@H](CC(C)C)C(=O)N[C@@H](CC(C)C)C(N)=O)[C@@H](C)CC)[C@@H](C)CC)[C@@H](C)CC [Compound C5-DK5] (Pentanoyl-IKKILSKIKKLL-NH2) 6.25 µg/mL

Sample CC[C@H](C)[C@H](NC(=O)COCCOCCNC(=O)[C@H](Cc1c[nH]cn1)NC(=O)CCNC(=O)CCCCCN)C(=O)N[C@@H](CCCCN)C(=O)N[C@@H](CCCCN)C(=O)N[C@H](C(=O)N[C@@H](CC(C)C)C(=O)N[C@@H](CO)C(=O)N[C@@H](CCCCN)C(=O)N[C@H](C(=O)N[C@@H](CCCCN)C(=O)N[C@@H](CCCCN)C(=O)N[C@@H](CC(C)C)C(=O)N[C@@H](CC(C)C)C(N)=O)[C@@H](C)CC)[C@@H](C)CC [AHX-CAR-PEG-DK5] (H-[Ahx][βAla]H[AEEA]IKKILSKIKKLL-NH2) — what was its MIC100? >50 µg/mL
